Data provenance: patent US20220281835A1

# Lookup of reported MBC keyed by entry
system: S. Aureus strain 1 (collection) mec a+; assay: MIC/MBC broth-dilution (micromethod), CLSI; format: cell-based; details: Staphylococcus aureus, kills 99,9% of initial population
A number alone suffices; assume µg/mL.

These solved cases illustrate the format of a correct answer.
Lookup: GET /values?readout=MBC&item= O=C(O)CCc1ccc(-c2ccc(O)c(C34CC5CC(CC(C5)C3)C4)c2)cc1 [Compound 19]
Found: 16

Lookup: Could you share which MBC value was measured for CC(=O)NCc1cc(-c2ccc(/C=C/C(=O)O)cc2)cc(C23CC4CC(CC(C4)C2)C3)c1O [Compound 17] ?
Found: 16

Lookup: Reported MBC, molecule N#C/C=C/c1ccc(-c2ccc(O)c(C34CC5CC(CC(C5)C3)C4)c2)cc1 (mixture of isomers) [Compound 1] : ____
Found: 128

Lookup: Return reported MBC; argument: O=C(O)/C=C/c1ccc(-c2ccc(O)c(C34CC5CC(CC(C5)C3)C4)c2)cc1 [adarotene, reference compound]
Found: 16

Lookup: I'd like to know its MBC. The molecule in question is N#C/C(=C\c1ccc(-c2ccc(O)c(C34CC5CC(CC(C5)C3)C4)c2)cc1)C(=O)O [Compound 4]
Found: 4

***
Lookup: Reported MBC for OCC#Cc1ccc(-c2ccc(O)c(C34CC5CC(CC(C5)C3)C4)c2)cc1 [Compound 2] : what is it?
Found: 4

Lookup: Quick one: MBC for O=C(O)/C=C/c1ccc(-c2cc(CNC(=O)Nc3ccccc3)c(O)c(C34CC5CC(CC(C5)C3)C4)c2)cc1 [Compound 18] ?
Found: 8

Lookup: I would be grateful if you could share the reported MBC for CC(C)(C)ON=Cc1cc(C=CC(=O)O)ccc1-c1ccc(O)c(C23CC4CC(CC(C4)C2)C3)c1 [Compound 12] .
Found: 4

Lookup: Look up MBC: CON=Cc1cc(/C=C/C(=O)O)ccc1-c1ccc(O)c(C23CC4CC(CC(C4)C2)C3)c1 [Compound 13]
Found: 4

----------
tested on: Enterococcus faecalis strain 2 (collection); assay: MIC/MBC broth-dilution (micromethod), CLSI; type: cell-based; conditions: E. FAECALIS strain 2, kills 99,9% of initial population
log10 MBC for assorted compounds
Record value = log10 of MBC given in µg/mL.

Below: 4 compounds and their reported log10 MBC.
Lookup: Suppose we examine the compound CON=Cc1cc(/C=C/C(=O)O)ccc1-c1ccc(O)c(C23CC4CC(CC(C4)C2)C3)c1 ; what log10 MBC value has been reported?
Found: 1.20

Lookup: Could you tell me which log10 MBC is on file for CC(C)(C)ON=Cc1cc(C=CC(=O)O)ccc1-c1ccc(O)c(C23CC4CC(CC(C4)C2)C3)c1 ?
Found: 0.60

Lookup: GET /values?readout=log10 MBC&item= O=C(O)CCc1ccc(-c2ccc(O)c(C34CC5CC(CC(C5)C3)C4)c2)cc1
Found: 1.51

Lookup: Given O=C(O)/C=C/c1ccc(-c2cc(CNC(=O)Nc3ccccc3)c(O)c(C34CC5CC(CC(C5)C3)C4)c2)cc1 , state its recorded log10 MBC.
Found: 1.20

Next:
Lookup: # query: log10 MBC of entry N#C/C=C/c1ccc(-c2ccc(O)c(C34CC5CC(CC(C5)C3)C4)c2)cc1 (mixture of isomers)
Found: 2.11

Lookup: Could you share which log10 MBC value was measured for O=C(O)/C=C/c1ccc(-c2ccc(O)c(C34CC5CC(CC(C5)C3)C4)c2)cc1 [adarotene, reference compound] ?
Found: 1.20

Lookup: For the compound shown here, N#C/C(=C\c1ccc(-c2ccc(O)c(C34CC5CC(CC(C5)C3)C4)c2)cc1)C(=O)O , give the reported log10 MBC.
Found: 0.60

Lookup: Which log10 MBC is listed for O=C(O)/C(F)=C\c1ccc(-c2ccc(O)c(C34CC5CC(CC(C5)C3)C4)c2)cc1 ?
Found: 1.20

Lookup: log10 MBC for CC(=O)NCc1cc(-c2ccc(/C=C/C(=O)O)cc2)cc(C23CC4CC(CC(C4)C2)C3)c1O ?
Found: 1.20

Lookup: Reported log10 MBC, compound C/C(=C\c1ccc(-c2ccc(O)c(C34CC5CC(CC(C5)C3)C4)c2)cc1)C(=O)O : ____
Found: 0.90
